Each entry below carries its recorded GI50.
System: LOX IMVI
ASSAY_PROTOCOL: NCI tumour cell line growth inhibition, 48 h
Among all 54,000 sequences or so, about 4,600 (8.5%) were called active. For the sample, actives were picked, then their nearest neighbours and some sequences at random. Potency and affinity values are given separately.
Could you give me the number in µM? Just the number is fine.

Field: example entries. Status: answers known.
>>> test_value("[Bis(aminomethyl)pentamethylenesilane]dichloropaltinum(II), CHEMBL2146202")
0.889
>>> test_value("[Bis(aminomethyl)pentamethylenesilane]tetrachloropaltinum(IV), CHEMBL2146204")
0.74
>>> test_value("[Bis(aminomethyl)dimethylsilane]tetrachloroplatinum(IV), CHEMBL2146190")
7.48

Turning now to a further record.
Field GI50 (LOX IMVI), entry CISPLATIN, CHEMBL11359 : 1.41
